compound	melting point
CC(=O)c1nn(-c2ccccc2[N+](=O)[O-])c(=N)s1	186 °C
CC(C)c1c(C(=O)Nc2ccccc2)c(-c2ccccc2)c(-c2ccc(F)cc2)n1CCC(O)CC(O)CC(=O)O (configuration not stated)	160 °C
COCCCN	-65 °C
CCCCCCCCCCCCCC(=O)Nc1ccccc1	82 to 87 °C
CC(=O)NC1Cc2ccccc21 (configuration not stated)	123 °C
COc1ccc(-c2ocnc2C(=O)Cl)cc1	97 to 99 °C
Cc1nc2ccccc2c(=O)n1-c1ccccc1Cl	126 °C
Nc1cccc(Oc2ccccn2)c1	76 to 78 °C
O=C(O)CC(CC(=O)O)c1ccc(C(F)(F)F)cc1	166 to 168 °C
O=C(C=Cc1ccsc1)c1ccccc1	88 °C
CCCCCCCCCCCCCCCCCC(=O)OCCO	60.5 °C
CCN(C)C(=O)COC(=O)c1ccccc1	20 °C

====

Field: label. Allowed values: label 1 (melting point < 90 °C) or label 0 (melting point >= 90 °C).

compound string	cat
CCNc1nc(Cl)nc(N(CC)CC)n1	label 0
CCCCCCCCCCCCCCCl	label 1
COC(=O)C#Cc1cccc(C#CC(=O)OC)c1	label 0
N#CC(=Cc1ccccc1)C(=O)O	label 0
COC(=O)C1(S(=O)(=O)c2ccc(Br)cc2)CC1	label 0
N=C1NC(=O)C(=NNc2ccccc2)S1	label 0
OCCOCCOCCOCCOCCOCCO	label 1

====

Below, each entry is listed with its recorded melting point.

compound	measurement units	melting point
CC(=O)N(Nc1ccccc1)c1ccc(N=Nc2ccccc2)cc1	°C	186
COC(=N)C1=CC(O)C(O)C(CO)O1 (stereo not drawn)	°C	196
O=[N+]([O-])c1cc(O)c(Cl)cc1Cl	°C	100
C/C=C/C1Nn2c(nnc2-c2ccc([N+](=O)[O-])cc2)S1 (stereo not drawn)	°C	150
CC(C)(C)c1ccc2c(c1)C(=O)c1ccccc1C2=O	°C	99
CC1(C)C2CCC1(C)C(NC(=S)Nc1ccccc1)C2NC(=S)Nc1ccccc1 (stereo not drawn)	°C	178
COC(=O)c1ccccc1S(=O)(=O)NC(=O)Nc1nc(C)nc(OC)n1	°C	162
CCCCCC(O)C=CC1C(O)CC(O)C1CC=CCCCC(=O)O (stereo not drawn)	°C	30
O=C1Nc2ccccc2C1=Nn1c(S)nnc1C(F)(F)F	°C	300
[O-][P+](c1ccccc1)(c1ccccc1)C1C=C(c2ccccc2)OC2=C1CCCC2 (stereo not drawn)	°C	177
Cc1cc(Br)cc(C)c1N=C=S	°C	79.5
O=C(Cl)c1cc(C(=O)Cl)c([N+](=O)[O-])cc1[N+](=O)[O-]	°C	107
CN(C)C(=O)CCCOC(=O)c1ccccc1	°C	40.5
CCC(=O)c1c(O)cc(O)cc1O	°C	176
c1ccc(O[Si](Oc2ccccc2)(Oc2ccccc2)Oc2ccccc2)cc1	°C	49

====

# label = MET if melting point >= 200 °C else NOT MET

compound	cat
O=C(O)C(F)(F)c1ccccc1	NOT MET
CC(C)=NNC(N)=O	NOT MET
N[C@@H](Cc1cc(Br)c(O)c(Br)c1)C(=O)O	MET
N#CC1=C(N)Oc2c(c(C(F)(F)F)nn2-c2ccccc2)C1c1ccc(O)cc1 (configuration not stated)	MET
CC(C)=CC1C(C(=O)OCc2coc(Cc3ccccc3)c2)C1(C)C (configuration not stated)	NOT MET
